target: T1, human IGF2^1-67 (mature insulin-like growth factor 2) (human, UniProt P01344 25-91, biotinylated (site not stated) where immobilised on the chip (Tables 1-4)); assay: SPR kinetic, biotin-IGF2 on chip, pH 7.4
T1 construct: mature; also called mature IGF2; biotinylated IGF2
T1 sequence (P01344 25-91): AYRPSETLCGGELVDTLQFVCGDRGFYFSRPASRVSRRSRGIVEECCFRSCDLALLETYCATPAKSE
pKd: −log10 of the molar value.
MEASUREMENT LABEL: pKd

{"BINDER": "domain 11^AB5 P1597N (receptor, See m5) MKSNEHDDCQVTNPSTGHLFDLSSLSGRAGFTAAYAKGWGVYMSICGENENCPPGVGACFGQTRISVGKANKRLRYVDQVLQLVYKDGSNCPSKSGLSYKSVISFVCRPEAGPTNRPMLISLDKQTCTLFFSWHTPLACEQATECSV", "ENDPOINT VALUE": 8.38}

A. domain 11^AB5 P1597S (receptor, See m5) MKSNEHDDCQVTNPSTGHLFDLSSLSGRAGFTAAYAKGWGVYMSICGENENCPPGVGACFGQTRISVGKANKRLRYVDQVLQLVYKDGSSCPSKSGLSYKSVISFVCRPEAGPTNRPMLISLDKQTCTLFFSWHTPLACEQATECSV
B. domain 11^AB3 P1597H K1631W (receptor, See m5) MKSNEHDDCQVTNPSTGHLFDLSSLSGRAGFTAAYSKSGVVYMSICGENENCPPGVGACFGQTRISVGKANKRLRYVDQVLQLVYKDGSHCPSKSGLSYKSVISFVCRPEAGPTNRPMLISLDWQTCTLFFSWHTPLACEQATECSV
Request: Hi there! Just curious which has the higher pKd between A and B . Kindly give the label for the entry you pick.
Response: A
(A: 8.38, B: 7.76)
